Where do the numbers come from? From PubChem BioAssay AID1021.

- system: Induced myeloid leukemia cell differentiation protein Mcl-1 (Homo sapiens) (UniProt Q07820)
- Sequence (Q07820 whole entry, looked up): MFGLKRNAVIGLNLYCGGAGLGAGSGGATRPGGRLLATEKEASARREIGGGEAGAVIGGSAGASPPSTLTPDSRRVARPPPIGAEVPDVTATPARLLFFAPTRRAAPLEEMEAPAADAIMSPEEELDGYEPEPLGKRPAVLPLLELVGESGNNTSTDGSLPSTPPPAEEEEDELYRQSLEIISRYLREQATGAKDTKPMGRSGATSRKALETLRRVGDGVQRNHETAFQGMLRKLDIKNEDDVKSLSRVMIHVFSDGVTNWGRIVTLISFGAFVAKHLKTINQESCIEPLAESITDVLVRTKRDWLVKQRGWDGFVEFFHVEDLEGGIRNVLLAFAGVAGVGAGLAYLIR
- testSummary: disruptors of Mcl-1 and Bid BH3 peptide – biochemical, TR-FRET, 1536-well, primary screen (AID 1021);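 further: His-tagged Mcl-1 with europium anti-His antibody binding Bid BH3 peptide; 0% = Mcl-1 plus peptide wells and 100% = peptide-only wells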
- testConditions: TR-FRET Mcl-1/Bid-Dy647 peptide binding, at 21.7 µM, active compounds read high
Among all 220,000 compounds or so, about 2,100 (0.95%) were called active. What follows is part of a selection rich in actives, with near analogues and random picks from the rest.
Reported inhibition values for the following compounds.
Report as a plain number; the unit % is understood.

                    compound  measurementunits  resultvalue
0  Cc1ccc(NNC(=O)C2CCC2)cc1C                 %          -13

**Query** Fill in: inhibition of CCOC(=O)c1cc2c(=O)[nH]c(C(Cl)(Cl)Cl)nc2o1 is ___
**Result** 52

**Query** Fill in: inhibition of O=C(CSc1nc2ccccc2o1)N/N=C/c1ccccc1C(=O)O is ___
**Result** -19.1

###

- system: Induced myeloid leukemia cell differentiation protein Mcl-1 (Homo sapiens) (UniProt Q07820)
- testSummary: disruptors of Mcl-1 and Bid BH3 peptide – biochemical, TR-FRET, 1536-well, primary screen (AID 1021);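 further: His-tagged Mcl-1 with europium anti-His antibody binding Bid BH3 peptide; 0% = Mcl-1 plus peptide wells and 100% = peptide-only wells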
- testConditions: TR-FRET Mcl-1/Bid-Dy647 peptide binding, at 21.7 µM, active compounds read high
The whole screen tested about 220,000 compounds, of which about 2,100 (0.95%) were called active. The list comes from a sample in which actives are over-represented; it also holds close analogues and randomly drawn compounds.
Rule: inhibition of -20% or more gives Condition met; anything lower gives Condition not met.

Study these solved cases before continuing.
                                   compound     labelvalue
0    O=S(=O)(Nc1n[nH]c(C(F)(F)F)n1)c1ccccc1  Condition met
1                 Nc1nc(SCc2ccccc2Cl)n[nH]1  Condition met
2  Cc1cccn2c(CNCC(C)Oc3cccnc3)c(C(=O)N3CCOCC3)nc12 (centres undefined)  Condition met

**Query** Does inhibition meet or surpass -20% for COc1cccc(/C=N/Nc2cc(C)nc(-c3ccccc3O)n2)c1O ?
**Result** Condition not met

**Query** Does inhibition meet or surpass -20% for c1ccc(CSc2nnc(-c3ccco3)c(-c3ccco3)n2)cc1 ?
**Result** Condition met

**Query** Does inhibition meet or surpass -20% for Cc1ccc2[nH]c3c(=O)n(Cc4ccccn4)cnc3c2c1 ?
**Result** Condition met

**Query** Does inhibition meet or surpass -20% for Cc1cc(C)nc(Nc2ncn[nH]2)n1 ?
**Result** Condition not met

**Query** Does inhibition meet or surpass -20% for O=C(CCCl)Nc1ccc(S(=O)(=O)NCc2ccco2)cc1 ?
**Result** Condition not met

**Query** Does inhibition meet or surpass -20% for CN(NC(=O)C1CC(=O)N(c2ccccc2)C1)C1=NS(=O)(=O)c2ccccc21 (centres undefined) ?
**Result** Condition met

**Query** Does inhibition meet or surpass -20% for COc1ccc2[nH]c3c(=O)n(Cc4ccco4)cnc3c2c1 ?
**Result** Condition met

**Query** Does inhibition meet or surpass -20% for Cc1cccn2c(CN(C)C3CCCc4ccccc43)c(C(=O)N3CCOCC3)nc12 (centres undefined) ?
**Result** Condition met

**Query** Does inhibition meet or surpass -20% for COC(OC)c1ccnc(SCc2ccccc2Cl)n1 ?
**Result** Condition met

**Query** Does inhibition meet or surpass -20% for Cc1ccc(-c2cc(C(=O)NN)n[nH]2)o1 ?
**Result** Condition not met

**Query** Does inhibition meet or surpass -20% for O=C(Nc1nnc(SCc2ccccc2)s1)c1ccco1 ?
**Result** Condition not met
